System: PIP tumor and PC3 tumor
Experiment: Biodistribution of 125I labeled compounds 17, 18, 26 and 27 in tumor bearing nude mice
Type: in vivo
Settings: 1 h
experimental_endpoint: Biodistribution: Muscle (% ID/g)

P. O=C(O)CC[C@H](NC(=O)N[C@@H](CCCCNC(=O)[C@H](Cc1ccccc1)NC(=O)COc1ccc(C[C@H](NC(=O)[C@H](CCC(=O)O)NC(=O)[C@H](CCC(=O)O)NC(=O)c2ccc([125I])cc2)C(=O)O)cc1)C(=O)O)C(=O)O [[^125I]27]
Q. O=C(O)CC[C@H](NC(=O)N[C@@H](CCCCNC(=O)[C@H](Cc1ccccc1)NC(=O)[C@H](CCC(=O)O)NC(=O)c1ccc([125I])cc1)C(=O)O)C(=O)O [[^125I]17]
Pick one: P or Q . Which has the bigger Biodistribution: Muscle number? To answer, give the label that identifies your chosen option. P
(P: 1.05 % ID/g, Q: 0.43 % ID/g)

A. O=C(O)CC[C@H](NC(=O)N[C@@H](CCCCNC(=O)[C@H](Cc1ccccc1)NC(=O)COc1ccc(C[C@H](NC(=O)[C@H](CCC(=O)O)NC(=O)c2ccc([125I])cc2)C(=O)O)cc1)C(=O)O)C(=O)O [[^125I]26]
B. O=C(O)CC[C@H](NC(=O)N[C@@H](CCCCNC(=O)[C@H](Cc1ccccc1)NC(=O)[C@H](CCC(=O)O)NC(=O)[C@H](CCC(=O)O)NC(=O)c1ccc([125I])cc1)C(=O)O)C(=O)O [[^125I]18]
I would appreciate it if you could say which entry, A or B , has the lower Biodistribution: Muscle value. Label of pick, please. B
(B: 0.95 % ID/g, A: 1.72 % ID/g)

====

Tested on: PIP tumor and PC3 tumor
Assay: Biodistribution of 125I labeled compounds 17, 18, 26 and 27 in tumor bearing nude mice
Assay type: in vivo
Conditions: 4 h
Experimental: Radioiodination and Purification: 100 μg of either precursor 13, 14, 22 or 23 were dissolved in 100 μL EtOH; 22 μL Na^125I (1033-1118 μCi in 0.1 N NaOH), 100 μL 1N HCl and 100 μL 3% H2O2 were added. […] For iv injection 150 μL of labeled solution was diluted with saline to 3.75 mL. […] Injected radioactivity was 2 to 3 μCi. Biodistribution study of [^125I]18, 27, 26, and 18 in tumor bearing nude mice were evaluated for their ability to localization of PSMA positive tumor (Tables 5, 6, 7 and 8). […]
experimental_endpoint: Biodistribution: gland (% ID/g)

O=C(O)CC[C@H](NC(=O)N[C@@H](CCCCNC(=O)[C@H](Cc1ccccc1)NC(=O)[C@H](CCC(=O)O)NC(=O)[C@H](CCC(=O)O)NC(=O)c1ccc([125I])cc1)C(=O)O)C(=O)O [[^125I]18]
2.25

a. O=C(O)CC[C@H](NC(=O)N[C@@H](CCCCNC(=O)[C@H](Cc1ccccc1)NC(=O)COc1ccc(C[C@H](NC(=O)[C@H](CCC(=O)O)NC(=O)[C@H](CCC(=O)O)NC(=O)c2ccc([125I])cc2)C(=O)O)cc1)C(=O)O)C(=O)O [[^125I]27]
b. O=C(O)CC[C@H](NC(=O)N[C@@H](CCCCNC(=O)[C@H](Cc1ccccc1)NC(=O)COc1ccc(C[C@H](NC(=O)[C@H](CCC(=O)O)NC(=O)c2ccc([125I])cc2)C(=O)O)cc1)C(=O)O)C(=O)O [[^125I]26]
c. O=C(O)CC[C@H](NC(=O)N[C@@H](CCCCNC(=O)[C@H](Cc1ccccc1)NC(=O)[C@H](CCC(=O)O)NC(=O)c1ccc([125I])cc1)C(=O)O)C(=O)O [[^125I]17]
Task for the reader: rank each entry by its Biodistribution: gland, from the minimum upward. Provide your answer as the labels ordered per the instruction. c, b, a

====

System: PIP tumor and PC3 tumor
Test: Biodistribution of 125I labeled compounds 17, 18, 26 and 27 in tumor bearing nude mice
Type: in vivo
Conditions: 1 h
experimental_endpoint: Biodistribution: thyroid (% ID/g)

O=C(O)CC[C@H](NC(=O)N[C@@H](CCCCNC(=O)[C@H](Cc1ccccc1)NC(=O)[C@H](CCC(=O)O)NC(=O)c1ccc([125I])cc1)C(=O)O)C(=O)O [[^125I]17]
3.57
O=C(O)CC[C@H](NC(=O)N[C@@H](CCCCNC(=O)[C@H](Cc1ccccc1)NC(=O)[C@H](CCC(=O)O)NC(=O)[C@H](CCC(=O)O)NC(=O)c1ccc([125I])cc1)C(=O)O)C(=O)O [[^125I]18]
15.99

a. O=C(O)CC[C@H](NC(=O)N[C@@H](CCCCNC(=O)[C@H](Cc1ccccc1)NC(=O)COc1ccc(C[C@H](NC(=O)[C@H](CCC(=O)O)NC(=O)c2ccc([125I])cc2)C(=O)O)cc1)C(=O)O)C(=O)O [[^125I]26]
b. O=C(O)CC[C@H](NC(=O)N[C@@H](CCCCNC(=O)[C@H](Cc1ccccc1)NC(=O)COc1ccc(C[C@H](NC(=O)[C@H](CCC(=O)O)NC(=O)[C@H](CCC(=O)O)NC(=O)c2ccc([125I])cc2)C(=O)O)cc1)C(=O)O)C(=O)O [[^125I]27]
Lowest Biodistribution: thyroid? choose a or b Give the label of your selection. a
(a: 13.21 % ID/g, b: 39.72 % ID/g)

====

Target: PSMA (Homo sapiens, UniProt Q04609)
Sequence (Q04609 whole entry, species assumed): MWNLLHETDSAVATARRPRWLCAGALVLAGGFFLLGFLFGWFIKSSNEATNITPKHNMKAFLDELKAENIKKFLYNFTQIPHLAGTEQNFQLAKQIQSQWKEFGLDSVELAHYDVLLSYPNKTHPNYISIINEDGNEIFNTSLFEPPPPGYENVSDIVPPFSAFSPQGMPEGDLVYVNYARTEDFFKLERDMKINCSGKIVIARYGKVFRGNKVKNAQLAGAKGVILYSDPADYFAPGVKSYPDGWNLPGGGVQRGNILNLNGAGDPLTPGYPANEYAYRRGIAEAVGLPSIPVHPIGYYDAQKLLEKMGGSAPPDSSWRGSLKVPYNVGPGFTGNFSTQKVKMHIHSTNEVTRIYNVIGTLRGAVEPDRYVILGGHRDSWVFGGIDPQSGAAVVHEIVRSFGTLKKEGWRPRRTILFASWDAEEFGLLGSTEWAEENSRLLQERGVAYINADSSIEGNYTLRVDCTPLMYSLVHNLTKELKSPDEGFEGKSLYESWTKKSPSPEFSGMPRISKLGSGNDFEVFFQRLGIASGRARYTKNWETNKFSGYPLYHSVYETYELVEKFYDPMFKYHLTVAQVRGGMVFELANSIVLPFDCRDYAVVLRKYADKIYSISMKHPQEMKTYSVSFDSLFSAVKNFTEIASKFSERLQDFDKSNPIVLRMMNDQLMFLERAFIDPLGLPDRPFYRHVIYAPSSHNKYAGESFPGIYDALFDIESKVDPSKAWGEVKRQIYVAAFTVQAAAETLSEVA
Assay: PSMA competitive binding, PC-3 PIP cells with [125I]MIP-1095
Design: expressed in transfected cells; host or cells: PC-3 PIP cells
Settings: n = 3 (a: n = 2); read-out: IC50 *(PC-3 PIP cells and [125I]MIP-1095)
pIC50: −log10 of the molar value.
experimental_endpoint: pIC50

O=C(O)CCC(C(=O)O)N1CCN(CC(=O)O)CCN(C(CCC(=O)N[C@@H](CCC(=O)O)C(=O)N[C@@H](CCC(=O)O)C(=O)N[C@@H](Cc2ccc(OCC(=O)N[C@@H](Cc3ccccc3)C(=O)NCCCC[C@H](NC(=O)N[C@@H](CCC(=O)O)C(=O)O)C(=O)O)cc2)C(=O)O)C(=O)O)CCN(CC(=O)O)CC1 (stereo partly shown) [Compound 29]
7.65
O=C(O)CCC(C(=O)O)N1CCN(CC(=O)O)CCN(C(CCC(=O)NCC(=O)N[C@@H](Cc2ccc(OCC(=O)N[C@@H](Cc3ccccc3)C(=O)NCCCC[C@H](NC(=O)N[C@@H](CCC(=O)O)C(=O)O)C(=O)O)cc2)C(=O)O)C(=O)O)CCN(CC(=O)O)CC1 (stereo partly shown) [Compound 4]
7.47

I. O=C(O)CC[C@H](NC(=O)N[C@@H](CCCCNC(=O)[C@H](Cc1ccccc1)NC(=O)[C@H](CCC(=O)O)NC(=O)c1ccc(I)cc1)C(=O)O)C(=O)O [Compound 17]
II. O=C(O)CCc1ccc(O)c(CN(CCN(CC(=O)O)Cc2cc(CCC(=O)NCCCCCC(=O)NCCCC[C@H](NC(=O)N[C@@H](CCC(=O)O)C(=O)O)C(=O)O)ccc2O)CC(=O)O)c1 [PSMA-11, Glu-NH—CO—NH-Lys-(Ahx)-(HBED-CC), reference compound]
Given the two records I and II , choose the one whose pIC50 value is lower. Please reply using the label of the selected record. II
(II: 7.32, I: 8.58)

====

System: PSMA-positive cell line, PIP PC3
Experiment: In vitro cell uptake, PIP PC3 cells
Type: cell-based
Settings: PIP PC3, 15 min
Recorded In vitro cell uptake by entry
Numeric answer only, unit % ID per 5 × 10^5 cells assumed.

The molecule listed as O=C(O)CC[C@H](NC(=O)N[C@@H](CCCCNC(=O)[C@H](Cc1ccccc1)NC(=O)COc1ccc(C[C@H](NC(=O)CNC(=O)CCC(C(=O)O)N2CCN(CC(=O)O)CCN(C(CCC(=O)NCCOCCOCCNC(=O)CCCc3ccc(I)cc3)C(=O)O)CCN(CC(=O)O)CC2)C(=O)O)cc1)C(=O)O)C(=O)O.[177Lu] (some centres unmarked) [[^177Lu]7] has a reported In vitro cell uptake of 7.8

Reported In vitro cell uptake ( O=C(O)CC[C@H](NC(=O)N[C@@H](CCCCNC(=O)[C@H](Cc1ccccc1)NC(=O)COc1ccc(C[C@H](NC(=O)CNC(=O)CCC(C(=O)O)N2CCN(CC(=O)O)CCN(CC(=O)O)CCN(CC(=O)O)CC2)C(=O)NCC(=O)NC(P(=O)(O)O)P(=O)(O)O)cc1)C(=O)O)C(=O)O.[177Lu] (some centres unmarked) [[^177Lu]51] ) = 8.4

Reported In vitro cell uptake for O=C(O)CCC(C(=O)O)N1CCN(CC(=O)O)CCN(C(CCC(=O)NCC(=O)N[C@@H](Cc2ccc(OCC(=O)N[C@@H](Cc3ccccc3)C(=O)NCCCC[C@H](NC(=O)N[C@@H](CCC(=O)O)C(=O)O)C(=O)O)cc2)C(=O)O)C(=O)O)CCN(CC(=O)O)CC1.[177Lu] (some centres unmarked) [[^177Lu]4] was 7.5

Reported In vitro cell uptake for O=C(O)CC[C@H](NC(=O)N[C@@H](CCCCNC(=O)[C@H](Cc1ccc2ccccc2c1)NC(=O)[C@H]1CC[C@H](CNC(=O)CN2CCN(CC(=O)O)CCN(CC(=O)O)CCN(CC(=O)O)CC2)CC1)C(=O)O)C(=O)O.[177Lu] [[^177Lu]PSMA-617, reference compound] was 5.8

Sure, the documented In vitro cell uptake for O=C([O-])CN1CCN(C(CCC(=O)NCC(=O)NC(Cc2ccc(OCC(=O)NC(Cc3ccccc3)C(=O)NCCCCC(NC(=O)NC(CCC(=O)O)C(=O)O)C(=O)O)cc2)C(=O)O)C(=O)[O-])CCN(CC(=O)[O-])CCN(C(CCC(=O)NCC(=O)NC(P(=O)(O)O)P(=O)(O)O)C(=O)O)CC1.[177Lu+3] (centres unmarked) [[^177Lu]42] is 5.5

The values you see were collected from patent US20220125959A1.
